Taken from ChEMBL document CHEMBL5113524.

experimental_target: UniProt O75751
method_notes: Inhibition of human OCT3 overexpressed in HEK293 cells assessed as intracellularly accumulation of ASP+ at 20 uM incubated for 5 mins by HPLC-MS/MS analysis relative to control
Type: cell-based
assay_conditions: HEK293 cells overexpressing OCT3, probe ASP+
measurement_kind: inhibition at 5 min, 20 µM

For C[C@@H](Oc1cc(-c2cnn(C3CCNCC3)c2)cnc1N)c1c(Cl)ccc(F)c1Cl the compound record lists inhibition at 5 min, 20 µM as 90.4%

For CC(C)[N+]1(C)[C@@H]2CC[C@H]1C[C@@H](OC(=O)C(CO)c1ccccc1)C2 (some centres undefined) the compound record lists inhibition at 5 min, 20 µM as 79.1%

For Cc1nc2n(c(=O)c1CCN1CCC(c3noc4cc(F)ccc34)CC1)CCCC2O (centres undefined) the compound record lists inhibition at 5 min, 20 µM as 87.7%

For CCCCC(CC)CNC(=N)NC(=N)NCCCCCCNC(=N)NC(=N)NCC(CC)CCCC (centres undefined) the compound record lists inhibition at 5 min, 20 µM as 103%

* * *

experimental_target: OCT3 (SLC22A3) (Homo sapiens, UniProt O75751)
Sequence (O75751 whole entry): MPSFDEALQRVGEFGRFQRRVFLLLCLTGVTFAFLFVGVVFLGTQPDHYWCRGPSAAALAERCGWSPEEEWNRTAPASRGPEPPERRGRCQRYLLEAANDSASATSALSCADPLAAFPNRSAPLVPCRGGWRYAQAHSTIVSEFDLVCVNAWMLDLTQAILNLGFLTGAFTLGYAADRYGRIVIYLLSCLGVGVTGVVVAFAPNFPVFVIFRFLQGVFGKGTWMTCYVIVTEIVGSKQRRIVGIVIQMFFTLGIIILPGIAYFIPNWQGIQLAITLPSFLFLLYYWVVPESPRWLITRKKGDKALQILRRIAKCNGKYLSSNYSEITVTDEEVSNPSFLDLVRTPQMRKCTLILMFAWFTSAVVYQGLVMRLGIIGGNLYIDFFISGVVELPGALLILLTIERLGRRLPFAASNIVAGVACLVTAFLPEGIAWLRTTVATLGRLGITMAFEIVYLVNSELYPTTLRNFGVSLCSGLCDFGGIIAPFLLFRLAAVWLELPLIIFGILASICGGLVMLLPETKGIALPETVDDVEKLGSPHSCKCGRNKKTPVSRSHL
method_notes: Inhibition of human OCT3 mediated ASP+ uptake overexpressed in HEK293 cells at 20 uM incubated for 5 mins by HPLC-MS/MS analysis relative to control
Assay type: cell-based
assay_conditions: HEK293 cells overexpressing OCT3, probe ASP+
Give measured inhibition at 5 min, 20 µM for each item. Keep answers brief.
Reply numerically in %, unit not repeated.

For CC[N+](CC)(CC)Cc1ccccc1 the compound record lists inhibition at 5 min, 20 µM as 5

For CC[C@@H](CO)NCCN[C@@H](CC)CO [ETHAMBUTOL] the compound record lists inhibition at 5 min, 20 µM as 7

For C[N+]1(C)[C@@H]2C[C@H](OC(=O)[C@H](CO)c3ccccc3)C[C@H]1[C@@H]1O[C@@H]12 the compound record lists inhibition at 5 min, 20 µM as 0

For CC[N+](CC)(CC)CC(=O)Nc1c(C)cccc1C the compound record lists inhibition at 5 min, 20 µM as 16

* * *

experimental_target: OCT2 (Homo sapiens, UniProt O15244)
Sequence (O15244 whole entry, looked up): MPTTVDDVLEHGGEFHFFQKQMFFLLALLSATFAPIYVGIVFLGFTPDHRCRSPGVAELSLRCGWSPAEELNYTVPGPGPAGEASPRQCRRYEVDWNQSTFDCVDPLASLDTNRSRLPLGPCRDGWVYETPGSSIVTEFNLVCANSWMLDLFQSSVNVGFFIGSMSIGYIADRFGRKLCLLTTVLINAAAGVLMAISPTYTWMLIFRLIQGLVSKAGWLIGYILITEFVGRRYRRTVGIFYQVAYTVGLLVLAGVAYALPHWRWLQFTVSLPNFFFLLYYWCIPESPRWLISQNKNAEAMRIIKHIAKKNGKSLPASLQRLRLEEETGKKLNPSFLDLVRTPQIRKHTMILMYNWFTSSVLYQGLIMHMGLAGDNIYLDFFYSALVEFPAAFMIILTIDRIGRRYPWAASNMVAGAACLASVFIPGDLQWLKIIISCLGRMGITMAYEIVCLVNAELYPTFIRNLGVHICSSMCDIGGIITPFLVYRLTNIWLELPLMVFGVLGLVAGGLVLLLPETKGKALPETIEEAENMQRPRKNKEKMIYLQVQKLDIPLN
method_notes: Substrate activity at human OCT2 overexpressed in HEK293 cells assessed as uptake ratio incubated for 2 mins by LC-MS/MS analysis
Assay type: ADME, cell-based
assay_conditions: HEK293 cells overexpressing OCT2
measurement_kind: uptake ratio at 2 min
Respond numerically, and do not add a unit to the figure.

For CN[C@@H]1CCc2[nH]c3ccc(C(N)=O)cc3c2C1 the compound record lists uptake ratio at 2 min as 10.8

For CN(C)CCc1c[nH]c2ccc(Cn3cncn3)cc12 the compound record lists uptake ratio at 2 min as 4.1

For CN(C)CCc1c[nH]c2ccc(C[C@H]3COC(=O)N3)cc12 the compound record lists uptake ratio at 2 min as 1.2

For COc1ccc2[nH]cc(CCN)c2c1 the compound record lists uptake ratio at 2 min as 7.1

* * *

experimental_target: OCT3 (SLC22A3) (Homo sapiens, UniProt O75751)
method_notes: Inhibition of human OCT3 overexpressed in HEK293 cells assessed as intracellularly accumulation of ASP+ at 20 uM incubated for 5 mins by HPLC-MS/MS analysis relative to control
Type: cell-based
assay_conditions: HEK293 cells overexpressing OCT3, probe ASP+
Give measured inhibition at 5 min, 20 µM for each item. Keep answers brief.
Reply numerically in %, unit not repeated.

For Cc1ccc(O)c([C@H](CCN(C(C)C)C(C)C)c2ccccc2)c1 [TOLTERODINE] the compound record lists inhibition at 5 min, 20 µM as 96.1

For CN(C)c1ccc(C(=C2C=CC(=[N+](C)C)C=C2)c2ccc(N(C)C)cc2)cc1 [GENTIAN VIOLET] the compound record lists inhibition at 5 min, 20 µM as 81.4

For [H]/N=C(\N/C(=N/[H])NCCCCCCNC(=N)NC(=N)Nc1ccc(Cl)cc1)Nc1ccc(Cl)cc1 [CHLORHEXIDINE] the compound record lists inhibition at 5 min, 20 µM as 98.4

For CNCCC=C1c2ccccc2CCc2ccccc21 [NORTRIPTYLINE] the compound record lists inhibition at 5 min, 20 µM as 80

For CN(C)CCC=C1c2ccccc2CC(O)c2ccccc21 (stereo not drawn) the compound record lists inhibition at 5 min, 20 µM as 79.3

For CNCC/C=C1\c2ccccc2CC(O)c2ccccc21 (stereo not drawn) the compound record lists inhibition at 5 min, 20 µM as 86.7

For CC(=O)S[C@@H]1CC2=CC(=O)CC[C@]2(C)[C@H]2CC[C@@]3(C)[C@@H](CC[C@@]34CCC(=O)O4)[C@H]12 [SPIRONOLACTONE] the compound record lists inhibition at 5 min, 20 µM as 93.9

For CN(C)CCC=C1c2ccccc2CCc2ccccc21 [AMITRIPTYLINE] the compound record lists inhibition at 5 min, 20 µM as 80
